Listed next: entries and their corresponding inhibition.
procedure.details: bacterial viability inhibition counter-screen, confirmation, counter-screen for AddAB inhibitor project, absorbance (AID 488956)
measurement.setup: absorbance (AddAB counterscreen), at 11.9 µM, active compounds read high
The other results are listed elsewhere or left out.
Give just the number in %; leave the unit off.

Please review the following examples before continuing.
O=C(OCC(=O)c1cccs1)c1ccc([N+](=O)[O-])o1 | 6.32
C/[N+]([O-])=C\c1ccc([N+](=O)[O-])o1 | 99.3
O=C(CSc1ccc(-c2ccccn2)nn1)Nc1ccccc1 | 5
CC(=O)c1c(C)n([O-])c2ccccc2[n+]1=O | 89.7
Cc1cccc(NC(=O)Cn2cc(C(=O)c3ccco3)c3ccccc32)c1 | 11.8

Lab note: next compound to report on.
Identify inhibition associated with the compound O=C(NCC1CCCO1)C(C(=O)c1ccccc1)n1cc(Cl)ccc1=O (stereo unspecified)
-1.24

---

// values below are reported inhibition
procedure.details: VP16 transactivation reporter inhibitors, counter-screen for LRH-1 inverse agonist project, cell-based, luminescence, high throughput (AID 651615)
measurement.setup: Gal4-VP16 luciferase reporter cells, at 3.6 µM, active compounds read high
Calls of active or inactive are those of the source. Rule as the data show it: active = inhibition above about 33%; inactive = the rest.

Consider the following illustrative entries.
CCOc1ccc(CCNC(=O)COC(=O)c2ccc(OC)c(OC)c2OC)cc1OCC | -6.44% (inactive)
Cn1c2c(c(=O)n(C)c1=O)C(C(F)(F)F)(C(F)(F)F)N=C(c1ccc(Cl)cc1)N2 | 86.7% (active)
NC(=O)c1ccc(N2CCN(S(=O)(=O)c3cccs3)CC2)c([N+](=O)[O-])c1 | 46.1% (active)
O=[N+]([O-])c1ccc(N2CCN(Cc3ccccc3)CC2)c2c1no[n+]2[O-] | 25.3% (inactive)
Cc1cc(/C=C2\SC(=S)N(C)C2=O)c(C)n1-c1ccc(O)cc1 | 39.5% (active)
CCc1ccc(S(=O)(=O)/N=C2\C=C(Nc3ccc(O)cc3)C(=O)c3ccccc32)cc1 | 94.3% (active)
CCCCn1c(NS(=O)(=O)c2ccccc2)c(S(=O)(=O)c2ccc(C)cc2)c2nc3ccccc3nc21 | -6.99% (inactive)
CCN(Cc1ccc(OC)c(F)c1)C(=O)CCl | 21.3% (inactive)

State its inhibition for this compound: Cc1ccc(/C=C2/SC(=S)N(CCCC(=O)Nc3ccc(O)cc3)C2=O)cc1
-5.05% (inactive)

Determine from records and report inhibition for CN(C)C(=O)Cn1c(SCC(=O)Nc2ccc3c(c2)OCO3)nc2ccccc21
-0.46% (inactive)

State its inhibition: N=c1c2c(n(Cc3ccc(Cl)cc3)c3c1CCC3)CCC2
78.3% (active)

---

Catalogue of inhibition readings, one per entry.
procedure.details: VP16 transactivation reporter inhibitors, counter-screen for LRH-1 inverse agonist project, cell-based, luminescence, high throughput (AID 651615)
measurement.setup: Gal4-VP16 luciferase reporter cells, at 3.6 µM, active compounds read high
The reply should be a number in %, with the unit left off.

Solved entries (count: 2):
COc1ccccc1C(=O)Nc1nc2ccccc2s1 | 75.6
O=C1/C(=C\c2ccc([N+](=O)[O-])cc2)CS(=O)(=O)C/C1=C/c1ccc([N+](=O)[O-])cc1 | 70.2

Supply reported inhibition belonging to this compound: COCc1cccc(-c2csc(C(C)(O)c3cccc(OC)c3)n2)c1 (centres undefined)
11.7

Retrieve inhibition measured for CSCc1c(C(=O)Nc2ccccc2N2CCOCC2)oc2ccccc12 and print it.
14.2

Complete the entry with inhibition for CCOc1cc(/C=N/Nc2nnc(C)n2N)ccc1O
2.17

Fill in inhibition for record CCOc1ccc(NC(=O)CSc2nc3ccccc3c(=O)n2CCCC(=O)NCC2CCCO2)cc1 (centres undefined)
-6.22

For the compound COc1cccc(C(=O)N/N=C2/SCC(=O)N2CCc2ccc(OC)c(OC)c2)c1 , give its reported inhibition.
-5.38

Please list inhibition recorded for the compound COc1ccc(-n2c(N)c(C(=O)NCc3cccnc3)sc2=S)cc1
-1.03

// fetch inhibition given entry CN(CCC#N)Cc1cc(=O)oc2ccc3ccccc3c12
5.57

Quick one: give measured inhibition for CCC(C)(C)c1ccc(OCCCC[n+]2cccc(C)c2C)c(C(C)(C)CC)c1
80.9

Return reported inhibition. Input compound: S=C(Nc1cccnc1)Nc1cccc2cnccc12
17

Provide only the value of recorded inhibition for O=C(Nc1ccc(S(=O)(=O)N2CCOCC2)cc1)c1ccc([N+](=O)[O-])o1
-5.86

Note down inhibition recorded for O=C1C(Nc2ccc(O)cc2)=C/C(=N/S(=O)(=O)c2cccs2)c2ccccc21
95.2

Fill in reported inhibition for this entry: CC(=O)Nc1ccc(C2=CC(=O)CC(C)(C)C2)cc1
-10.9

Tell me its inhibition given CCC(c1nnnn1-c1c(C)cccc1C)N1CCN(c2ccc(C(F)(F)F)cc2[N+](=O)[O-])CC1 (centres undefined) as the entry.
10
